System: TK-10 renal
Test: NCI tumour cell line growth inhibition, 48 h
In this section, each of the compounds is paired with its reported TGI.

{"columns": ["COMPOUND", "TGI"],
 "data": [
  ["Cc1nc2ccc(S(=O)(=O)Nc3ccccc3Cl)cc2c(=O)n1NC(=O)CNc1ccccc1Cl", "> 100 µM"],
  ["COc1cc2c(cc1O)-c1c(OC)c(O)cc3c1C(C2)N(C)CC3 (stereo not given)", "> 100 µM"],
  ["N#Cc1nc(Nc2ccc(Cl)cc2)sc1N", "> 76.6 µM"],
  ["CCOC(=O)NN(C(=O)OCC)C(C(=O)c1ccc(Cl)cc1)=C1NCCN1", "> 100 µM"],
  ["COc1ccc(C(=O)C(CC2C(=O)CC(C)(C)C(C(=O)C(=O)Nc3c(C)cccc3C)C2=O)c2ccc(OC)cc2)cc1 (stereo not given)", "> 100 µM"],
  ["CCOC1=C2C(C)(CCC3[C@@]4(C)C=CC(=O)C(C)(C)C4CC(O)[C@@]23C)C(c2ccoc2)C1=O (stereo not given in full)", "61.3 µM"],
  ["CCCC(=O)Nc1ncnc2c1ncn2C1OC2COP(=O)(O)OC2C1OC(=O)CCC (stereo not given)", "> 1000 µM"],
  ["Cc1ccc(S(=O)(=O)c2ccsc2NC(=O)c2ccccc2)cc1", "> 100 µM"],
  ["O=C1c2ccccc2CCC1(Br)Br", "2.88 µM"],
  ["O=C1CCCCCCCCCCC1CN(Cc1ccccc1)Cc1ccccc1 (stereo not given)", "> 100 µM"]
]}

###

Test system: A549 NSCLC
Test: NCI tumour cell line growth inhibition, 48 h
In this section, each of the compounds is paired with its reported TGI.
MEASUREMENT_NAME: TGI

{"columns": ["COMPOUND", "RESULT"],
 "data": [
  ["CN1CC(S(=O)(=O)c2ccccc2)CC(S(=O)(=O)c2ccccc2)C1c1ccccc1 (stereo not given)", "> 100 µM"],
  ["CS(=O)(=O)c1ccc(-c2[nH]c3ccc(F)cc3c2/C=N/NC(N)=S)cc1", "> 100 µM"],
  ["Cc1ccc(Nc2cc(=O)[nH]c(=O)[nH]2)cc1CS", "> 100 µM"],
  ["ClCCCC1COc2ccccc2O1 (stereo not given)", "> 100 µM"],
  ["CCCC(=O)Nc1ncnc2c1ncn2C1OC2COP(=O)(O)OC2C1OC(=O)CCC (stereo not given)", "> 1000 µM"]
]}

###

Tested on: CAKI-1 renal
Assay: NCI tumour cell line growth inhibition, 48 h

{"columns": ["COMPOUND", "TGT", "RELATION_SYMBOL", "TGI / µM"],
 "data": [
  ["C/C=C(\\C)C(=O)OC1C2C(C)C(=O)OC2C(O)C(C)C2C=CC(=O)C21C (stereo not drawn)", "CAKI-1 renal", "=", 28.4],
  ["CN(C)c1ccc(/C=C2\\N=C(c3ccccc3)N(/N=C3\\C(=O)Nc4ccccc43)C2=O)cc1", "CAKI-1 renal", ">", 100],
  ["COc1cccc(N2C(=O)[C@H]3[C@H]4CC(C(C)(C)C)CC[C@H]4c4c([nH]c5ccccc45)[C@H]3C2=O)c1 (stereo partly drawn)", "CAKI-1 renal", "=", 32.3]
]}

###

In this section, each of the compounds is paired with its reported GI50.
Test system: MDA-MB-231 breast
Assay: NCI tumour cell line growth inhibition, 48 h
MEASUREMENT_NAME: GI50

{"columns": ["COMPOUND", "MEASUREMENT_NAME", "RESULT"],
 "data": [
  ["COc1cc(CCNc2nc3cc(N)cc(N)c3nc2-c2ccccc2)cc(OC)c1", "GI50", "1.57 µM"],
  ["O=C1CCCC(=O)C1C(=O)c1ccc(C(F)(F)F)cc1[N+](=O)[O-]", "GI50", "> 100 µM"],
  ["CCNC(=O)c1ccc2c(c1)nc(-c1ccc(Cl)cc1)n2-c1cc(C(C)(C)C)[nH]n1", "GI50", "5.56 µM"],
  ["CNc1ccc(C(=O)CC(O)CCC(C)C2OC(=O)CC(O)CC(=O)CC(O)CC(O)CC(O)CC(O)CC3(O)CC(O)C(C(=O)NCCc4ccccn4)C(CC(OC4OC(C)C(O)C(N)C4O)/C=C/C=C/C=C/C=C\\C=C/C=C/C=C/C2C)O3)cc1 (centres undefined)", "GI50", "6.23 µM"]
]}
